- assayed_system: T1, rat cMET (rat, UniProt P97523 25-935, limits assumed)
- T1 construct: also called rMET
- T1 sequence (P97523 25-935 limits assumed): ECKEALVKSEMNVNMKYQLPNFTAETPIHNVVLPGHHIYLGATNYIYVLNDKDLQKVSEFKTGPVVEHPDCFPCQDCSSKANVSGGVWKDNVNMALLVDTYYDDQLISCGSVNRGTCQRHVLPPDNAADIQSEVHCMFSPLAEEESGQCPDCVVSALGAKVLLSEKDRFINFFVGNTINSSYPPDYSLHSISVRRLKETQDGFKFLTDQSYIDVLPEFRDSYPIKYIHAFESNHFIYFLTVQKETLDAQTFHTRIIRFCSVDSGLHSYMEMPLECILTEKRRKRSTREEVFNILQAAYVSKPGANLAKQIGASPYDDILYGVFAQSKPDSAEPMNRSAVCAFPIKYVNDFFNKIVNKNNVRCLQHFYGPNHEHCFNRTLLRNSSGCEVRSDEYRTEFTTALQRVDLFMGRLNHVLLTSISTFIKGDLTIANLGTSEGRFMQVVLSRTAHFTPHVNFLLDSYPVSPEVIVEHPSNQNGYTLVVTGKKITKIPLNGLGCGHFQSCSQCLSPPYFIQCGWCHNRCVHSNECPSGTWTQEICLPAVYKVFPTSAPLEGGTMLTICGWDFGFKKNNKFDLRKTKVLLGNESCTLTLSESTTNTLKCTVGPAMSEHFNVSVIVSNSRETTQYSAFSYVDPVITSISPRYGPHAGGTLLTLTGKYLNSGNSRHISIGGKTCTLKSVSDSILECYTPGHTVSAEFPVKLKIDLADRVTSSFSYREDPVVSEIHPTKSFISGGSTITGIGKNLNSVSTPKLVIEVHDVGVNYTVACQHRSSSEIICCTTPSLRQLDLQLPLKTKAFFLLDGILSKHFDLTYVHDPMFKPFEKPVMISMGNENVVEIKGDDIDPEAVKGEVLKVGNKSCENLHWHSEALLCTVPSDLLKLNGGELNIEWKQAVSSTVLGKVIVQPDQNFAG
- method_summary: ELISA on rat cMET, ratio against the parental antibody
Measured ELISA rMET vs parental, listed per entry.
Just the number, please, no unit attached.

In the examples that follow, each entry is paired with its recorded ELISA rMET vs parental.
Exercise: Given the binder humanized P3D12 antibody, HC SEQ ID NO: 108 (P3D12 VH-cdr) / LC SEQ ID NO: 47 (P3D12 VL-fra) (antibody, V domains shown) VH: QVQLVQSGAEVKKPGASVKVSCKASGYTFTSYWMHWVKQAPGQGLDWIGYIKPSTDNTEYNQKFKDKATLTADKSTSTAYMELSSLRSEDTAVYYCARSYGNYPLMDYWGQGTTVTVSS VL: QIVLTQSPAILSLSPGERATLSCSASSSVTSNYLYWYQQKPGSSPKLLIYSTSNLASGVPARFSGSGSGTSYTLTISSLEAEDAASYFCHQWSSYPPTFGSGTKLEIKR , what is its reported ELISA rMET vs parental?
Key: 0.9

Exercise: Given the binder humanized P3D12 antibody, HC SEQ ID NO: 105 (P3D12 VH-fra) / LC SEQ ID NO: 46 (P3D12 VL-ven) (antibody, V domains shown) VH: QVQLQQSGAEVKKPGASVKVSCKASGYTFTSYWMHWVKQRPGQGLDWIGYIKPSTDNTEYNQKFKDRVTLTADKSTSTAYMQLSNLISEDTAVYYCARSYGNYPLMDYWGQGTSVTVSS VL: QIVLTQSPATMSASPGERVTLSCSASSSVTSNYLYWYQQKPGSSPRLWIYSTSNLASGVPARFSGSGSGTSYTLTISRMEPEDAASYFCHQWSSYPPTFGSGTKLEIKR , what is its reported ELISA rMET vs parental?
Key: 1.2

Exercise: Given the binder humanized P3D12 antibody, HC SEQ ID NO: 105 (P3D12 VH-fra) / LC SEQ ID NO: 47 (P3D12 VL-fra) (antibody, V domains shown) VH: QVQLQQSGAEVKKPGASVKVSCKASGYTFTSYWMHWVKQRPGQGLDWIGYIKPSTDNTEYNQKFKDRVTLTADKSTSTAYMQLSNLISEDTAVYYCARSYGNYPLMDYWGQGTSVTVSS VL: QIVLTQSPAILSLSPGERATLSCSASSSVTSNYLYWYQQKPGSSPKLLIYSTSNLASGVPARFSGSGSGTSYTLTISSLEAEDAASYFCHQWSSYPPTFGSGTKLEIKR , what is its reported ELISA rMET vs parental?
Key: 1.4

Exercise: Given the binder humanized P3D12 antibody, HC SEQ ID NO: 105 (P3D12 VH-fra) / LC SEQ ID NO: 49 (P3D12 VL-cdr) (antibody, V domains shown) VH: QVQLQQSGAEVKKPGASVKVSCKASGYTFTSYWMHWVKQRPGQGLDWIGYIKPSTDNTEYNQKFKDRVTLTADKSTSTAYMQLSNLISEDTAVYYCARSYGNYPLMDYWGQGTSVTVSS VL: QIVLTQSPATLSLSPGERATLSCSASSSVTSNYLYWYQQKPGSSPRLLIYSTSNLASGVPARFSGSGSGTSYTLTISRLEPEDFASYFCHQWSSYPPTFGSGTKLEIKR , what is its reported ELISA rMET vs parental?
Key: 2.3

Exercise: Given the binder humanized P3D12 antibody, HC SEQ ID NO: 108 (P3D12 VH-cdr) / LC SEQ ID NO: 49 (P3D12 VL-cdr) (antibody, V domains shown) VH: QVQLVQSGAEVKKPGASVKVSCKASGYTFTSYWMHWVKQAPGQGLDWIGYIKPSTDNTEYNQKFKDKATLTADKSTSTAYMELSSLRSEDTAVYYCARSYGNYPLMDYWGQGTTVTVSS VL: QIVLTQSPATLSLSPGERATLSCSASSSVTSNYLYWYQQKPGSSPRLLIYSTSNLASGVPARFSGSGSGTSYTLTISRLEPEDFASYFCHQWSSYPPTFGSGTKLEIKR , what is its reported ELISA rMET vs parental?
Key: 2

Exercise: Given the binder humanized P3D12 antibody, HC SEQ ID NO: 108 (P3D12 VH-cdr) / LC SEQ ID NO: 48 (P3D12 VL-abb/sdr) (antibody, V domains shown) VH: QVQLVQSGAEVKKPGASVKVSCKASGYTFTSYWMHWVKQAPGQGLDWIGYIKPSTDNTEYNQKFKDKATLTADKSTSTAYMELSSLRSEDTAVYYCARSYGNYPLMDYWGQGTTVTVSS VL: QIVLTQSPATLSLSPGERATLSCRASQSVTSNYLYWYQQKPGSSPRLLIYSTSNLASGVPARFSGSGSGTDYTLTISRLEPEDFASYFCHQWSSYPPTFGSGTKLEIKR , what is its reported ELISA rMET vs parental?
Key: 2.7

Next:
Exercise: Given the binder humanized P3D12 antibody, HC SEQ ID NO: 108 (P3D12 VH-cdr) / LC SEQ ID NO: 46 (P3D12 VL-ven) (antibody, V domains shown) VH: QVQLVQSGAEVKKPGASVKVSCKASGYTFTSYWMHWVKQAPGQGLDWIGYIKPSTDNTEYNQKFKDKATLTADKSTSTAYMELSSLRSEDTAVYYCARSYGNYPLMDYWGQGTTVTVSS VL: QIVLTQSPATMSASPGERVTLSCSASSSVTSNYLYWYQQKPGSSPRLWIYSTSNLASGVPARFSGSGSGTSYTLTISRMEPEDAASYFCHQWSSYPPTFGSGTKLEIKR , what is its reported ELISA rMET vs parental?
Key: 1
